Recorded values, source PubChem BioAssay (NCI).

- Test system: HCC-2998 colon
- MEASUREMENT_NOTES: NCI tumour cell line growth inhibition, 48 h
READOUT_TYPE: TGI

Form entry - test system: HCC-2998 colon; read-out: TGI; compound: COc1ccccc1C(=O)N(C)c1ccc(Cl)c(C(=O)OC(C)C)c1
> 100 µM

Further cases:
Observed TGI on HCC-2998 colon for C=C(c1ccccc1)c1ccccc1-c1cc(-c2ccccc2)cc(-c2ccccc2)n1 , please.
> 100 µM

Recall the recorded TGI for OC1C[C@H](c2ccccc2)C2(C(O)c3ccccc3C2O)[C@@H](c2ccccc2)C1 (stereo partly specified) with HCC-2998 colon and state it.
> 100 µM

GET /values?readout=TGI&system=HCC-2998 colon&item= COc1ccc(Sc2ccccc2N)cc1
> 100 µM

Lab note: need TGI with HCC-2998 colon for entry O=C1CC2CCC(C1)S2=O (stereo unspecified) , please look it up.
> 100 µM

###

- Test system: OVCAR-5 ovarian
- MEASUREMENT_NOTES: NCI tumour cell line growth inhibition, 48 h
Entries and their TGI values follow.
Answer with a number only, understood to be in µM.

Any idea what TGI was measured for CCN(CC)c1ccc(/C=C/C=C2\NC(=O)NC2=O)cc1 ?
98.4

Please report the recorded TGI for CCN1CCC(O)(/C=C/c2ccc(OC)cc2)C(C(=O)/C=C/c2ccc(OC)cc2)C1 (stereo not given) .
28.8

Form field: reported TGI of O=Nc1c(-c2c(O)[nH]c3ccc(Br)cc23)[nH]c2ccccc12
16.9

***
Entry COc1cccc2c1n([O-])c1cccc(OC)c1[n+]2=O : reported TGI = ?
27.3

###

Quick reference for TGI among some compounds
- Test system: SR leukemia
- MEASUREMENT_NOTES: NCI tumour cell line growth inhibition, 48 h
I only need the number, in µM, no unit after it.

Can you look up TGI on SR leukemia for COc1ccc(N2C(=O)C3c4[nH]c5ccccc5c4C4CCCCC4C3C2=O)cc1 (stereo unspecified) ?
25.2

So what TGI did CCC[CH2][Sn]1([CH2]CCC)[O]CC(C)[O]1 (stereo unspecified) get with SR leukemia?
2.27

Provide the documented TGI with SR leukemia as the system for COc1ccc(Cn2cc3c(c2-c2cc(OC)c(OC)c(OC)c2)CCc2cnoc2-3)cc1
1.42

What value of TGI on SR leukemia does COC(=O)c1nn(C(=N)c2ccc(Cl)cc2)c2c1CCC2 have?
92.3

###

- System: SK-OV-3 ovarian
- MEASUREMENT_NOTES: NCI tumour cell line growth inhibition, 48 h
Decision: TGI compared against 30 µM; not below it gives TRUE, below it gives FALSE.

Hi, just wondering whether Brc1ccc2c(-c3csc(-c4c[nH]c5ccccc45)n3)c[nH]c2c1 shows TGI of 30 µM or higher.
TRUE

Check the entry O=c1[nH]c(=S)c2cc3c(=S)[nH]c(=O)n(CCO)c3nc2n1CCO : does TGI equal or exceed 30 µM?
TRUE

***
Decide: TGI of C/C(=N\NC(=S)N(C)C)c1ccccn1 >= 30 µM?
FALSE

For this compound, is measured TGI 30 µM or higher? CC(=O)c1nc2ccccc2n1CC(=O)c1cccc(Cl)c1
TRUE

Is the recorded value of TGI equal to or greater than 30 µM for this compound? NC(=S)NN=C1CSSC1
FALSE

Threshold query (TGI >= 30 µM) on O=C(CSc1nc2ccccc2c(=O)n1-c1ccccc1)N=Nc1c(O)[nH]c2ccc(F)cc12
FALSE

###

# reported TGI; entries follow
- Tested on: HT29 colon
- MEASUREMENT_NOTES: NCI tumour cell line growth inhibition, 48 h
Please reply with the bare figure in µM and do not write the unit itself.

Worked set:
# lookup: TGI of CCC[CH2][Sn]1([CH2]CCC)[O]CC(C)[O]1 (stereo not drawn)
3.44

Tell me the measured TGI of O=[N+]([O-])c1cccc2nccc(NCCCO)c12 , please.
74.1

Which TGI is listed for C=CC(COC(c1ccccc1)(c1ccccc1)c1ccccc1)N(CC)CC (stereo not drawn) ?
7.05

Give the measured TGI of O=C(N/N=C/c1cc(Br)cc(Br)c1[O-])c1ccccc1O.O=C(N/N=C/c1cc(Br)cc(Br)c1[O-])c1ccccc1O.[Ni+2] .
2.24

Query (compound): S=c1[nH]c2ccc(I)cc2c(=S)n1Cc1ccccc1 ; field requested: TGI
38.9

Continuing:
Return reported TGI; argument: Cc1cc(S(=O)(=O)/N=C(/NN)NNc2cccc(C(F)(F)F)n2)c(S)cc1Cl
43.1

Please look up its TGI: COc1ccc(C(=O)/C=C/c2cc(O)c(O)cc2F)c(OC)c1
26

# input compound: COC(=O)C1=C(C(=O)OC)SC2(S1)C(C(=O)OC)=C(C(=O)OC)Sc1c2ssc1=NC(C)(C)C ; wanted: its TGI
2.57

Reported TGI for CCc1cccc(C)c1NC(=O)CC1C(=O)Nc2ccccc2S1(=O)=O (stereo not drawn) : what is it?
36.4

Suppose we examine the compound C=C1C(=O)OC2CC3(C)OC3CC/C(C)=C/C(OC(C)=O)C12 (stereo not drawn) ; what TGI value has been reported?
13.5

###

- System: NCI-H522 lung
- MEASUREMENT_NOTES: NCI tumour cell line growth inhibition, 48 h; in the data active means GI50 below about 0.43 µM; inactive means the rest
Allowed answers: active, inactive

The following molecules have reported results that may help.
What did this assay record as the result for Cc1cc(C(=O)c2ccccc2)c(C)c2c1[nH]c1ccc(Cl)cc12 ?
active

How did this test come out for O=C(NC(=S)Nc1cc(Cl)ccc1O)c1cccc(Br)c1 ?
inactive

Short answer needed: outcome of this test for CC(=O)[O-].O=C([CH-]C(=O)c1ccccc1)c1ccccc1.O=C([CH-]C(=O)c1ccccc1)c1ccccc1.[Sm+3] ?
inactive

What did this assay record as the result for CC(O)c1cc(C(=O)N[C@@H](C)Cn2ccc(-c3ccc(C#N)c(Cl)c3)n2)n[nH]1 (stereo not given in full) ?
inactive

I'd appreciate the recorded outcome for COC(=O)C(C)NC(=O)c1ccccc1I(OS(=O)(=O)C(F)(F)F)c1ccccc1 (stereo not given) from this test.
inactive

Called result for CC1=NN(c2nc(N)nc(/C=C\c3ccc([N+](=O)[O-])s3)n2)C(C)(C)C1
inactive

Can you look up the reported call for CC[C@H](C)C(=O)O[C@H]1C[C@H](O)C=C2C=C[C@H](C)[C@H](CC[C@@H](O)C[C@@H](O)CC(=O)O)[C@H]21 for me?
inactive

// return assay outcome for CC#Cc1nc(Nc2cc(C)[nH]n2)c2ccccc2n1
inactive

---
Assay outcome for CCN(Cc1c(Cl)cccc1Cl)c1ccc(CO)c(Cl)c1 : what was it?
inactive

Recorded test outcome, item Cc1ccc([C@]2(C)CC[C@H](C)/C2=C\Br)c(O)c1
inactive

###

- Test system: HCT-116 colon
- MEASUREMENT_NOTES: NCI tumour cell line growth inhibition, 48 h
READOUT_TYPE: TGI (µM)
Answer with a number only, understood to be in µM.

Which TGI is listed for O=C1C(Cl)=C(Nc2cccc(C(F)(F)F)c2)C(=O)N1Cc1ccc(Cl)cc1 ?
4.88

Can you look up the measured TGI of COc1cc2c3c(n(C)c(=O)c2cc1OC)-c1cc2c(cc1/C3=C\CCNCCCN)OCO2 for me?
3.39

--- query ---
Consider the molecule shown here: O=C1/C(=C/c2ccc(Br)cc2)CCC/C1=C\c1ccc(Br)cc1 What is its recorded TGI?
3.1

###

# GI50 per record follows
- System: SK-MEL-2 melanoma
- MEASUREMENT_NOTES: NCI tumour cell line growth inhibition, 48 h

Given the entry O=C(c1ccccc1)c1c(C(F)(F)F)n([O-])c2ccc(C(F)(F)F)cc2[n+]1=O , report its measured GI50.
1.24 µM

Return reported GI50; argument: N#CC1C=Cc2c(ccc3ccccc23)N1C(=O)c1ccccc1 (stereo unspecified)
4.61 µM

Data request, read-out GI50, for Cn1cc(C2=C(N3CCOCC3)C(=O)NC2=O)c2ccccc21
> 25 µM

Can you share its GI50? I mean this molecule: CCC[CH2][Sn]1([CH2]CCC)[O]CC(C)[O]1 (stereo unspecified)
0.54 µM

Requested read-out: GI50. Entry: CC(=O)[CH-]C(C)=O.CC(=O)[CH-]C(C)=O.CC[O-].CC[O-].[Ti+4]
> 100 µM

Further cases:
Recorded GI50 for O=Nc1c(-c2c(O)[nH]c3ccc(Br)cc23)[nH]c2ccccc12 , please?
2.65 µM

Quick one: GI50 for CC(C)(C)c1ccc(NS(=O)(=O)c2ccc3nc(NC(=O)c4cnccn4)[nH]c3c2)cc1 ?
4.56 µM

Requested read-out: GI50. Entry: COc1cc(-c2csc(NC(=O)Nc3cc(Cl)cc(Cl)c3)n2)cc(OC)c1OC
2.61 µM

What measured GI50 goes with O=C(CCc1ccc(O)cc1)N/N=C/c1cc(Br)ccc1O ?
5.28 µM

Consider the molecule shown here: Cc1ccc(-c2cc(O)c(-c3ccc(C)cc3C)cc2O)c(C)c1 What is its recorded GI50?
15.4 µM

What does the record list as GI50 for Cc1ccc(Sc2cc3c(oc2=O)-c2ccccc2OC3O)cc1 (stereo unspecified) ?
22.1 µM
